target entity: LMO7, Q8WWI1
Sequence (Q8WWI1 1037-1138): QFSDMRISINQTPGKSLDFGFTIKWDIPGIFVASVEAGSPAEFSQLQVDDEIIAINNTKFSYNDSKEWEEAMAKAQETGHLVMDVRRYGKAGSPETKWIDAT
assay comment: holdup assay
Design: key: below the threshold = too weak to quantify, mostly under pKd 3.1 to 4
experimental conditions: plain residues with an end cap or a label only (N-terminal biotin on a linker: ttds)
measured metric: pKd

Check out these entries, answers already filled in.
1. RSLEEEESQL [GRASP, Q7Z6J2] ... 4.14
2. STLTIFETAL [ABCC4, O15439] ... below the threshold
3. SSRTRRETQL [HPV16-E6, P03126] ... 4.15
4. PKTPPTDTSV [KIR3DL3, Q8N743] ... below the threshold
5. QSARYRDTEL [TJP2, Q9UDY2] ... below the threshold

Next item in the queue.
What pKd value was documented for this binder, SVWLRKETRV [CYSLTR2, Q9NS75] ? below the threshold

FYI, the data here is from paper PMC9482650.
